# credit: the RNAGym collection of RNA variant scans (doi:10.1126/science.aae0568)

B1: tRNA (parent)
chain: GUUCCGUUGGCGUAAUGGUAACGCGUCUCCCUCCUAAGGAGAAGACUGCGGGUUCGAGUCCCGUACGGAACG

# Variants of: B1
# protocol-notes: yeast fitness relative to wild type (ratio to wild type); higher = fitter; tRNA-Arg(CCU), competitive growth, 37 C, YPD
This sample holds only a part of the variants without activity.
Label Yes when yeast fitness is at or above 0.6; otherwise label No.

residue-string	assigned-label
GUUCCGUUGGCGUAAUGGUAGCGCGUCUCCCUCCUAAGGGGUAGACUGCGGGUUCGAGGCCCGUACGGAACG	No
GUUCCGUUGGCGUAAUGGUAACGCGUGUCCCUCCUAAGGAGAAGACUGCGGGUUCGAGUGCCGUUCGGAACG	Yes
GUUCCGUUGGCAUAAUGGUAACACGUCGCCCUCCUAAGGAGAAGACUGCGGGUUCCAGUCCCGUUCGGAACG	Yes
GUUCCGUUGGCGUAAUGGUAACGCGUCUCCCUCCUAAAGAGAAGACUGCGGGUUCGAGGCCCGUACGGGACG	No
GUUACGUUGGCCUAAUGGUACGGCGUCUCCCUCCUAAGGAGAAGACUGCGGGUUAGAGUUCGGUACGGCACG	No
GUUCCGUUGGCGUAAUAGUAACGAGUCUCCCUCCUAAGGAGAAGACUGUGGGUUCGAGUCCCGUACGGAACG	No
GUUCCGAUGGCGUAAUGGUAACGCGUCUCCCUACUAAGGAGAAGCCUGCGGGUUCGAGUCCCGUACGGAACG	No
GUUCCGUUGACGUAAUGGUAACGCGUCUCACUCCUAAGGAGAAGACUGCGGGUUCGAGUCCCGUACGGAGCG	No
GUUCCGUUGGCGUAAUGGUAACGCGUCUCCCUCCUAAGCAGAAGACUGCGGGUUCGAGUCCCGUAUGGUACG	No
GUUCCGUUGGCGUAAUGGUAACGCGUCUCCCUCCUAAGGAGAAGACUGUGGGUUCGACUCCGGUACGGCACG	No
GUUCCGUUGGCGUAAUGGUAACGCGUCUCCGUCCUAAGGAGAAGACUGCGGGUUCGUGUCCCGUACGGGACG	Yes
GUUCCGUUGGCGUAAUGGUAACGCGUCUGCGUCCUAAGGAGAAGAGUGCGGGUUUGAGUCCCGUUCGGAACG	Yes
GUUCCGUUGGCGUUAUGGUAACGCGUCUCCCUCCUAAGGACAAGACUGCGGGUUCGAGACACGUAUGCAACG	No
GAUCAGUUGGCGUAACGGUAACGCGUCUCACUCCUAAGGAGAAGACUGCGGGUUCGAGUCCCGUACGGAACG	No
GUUCCGUUGGCGUAAUGGUAACGCGUCUCCCUCCUAAGGAGAAGACUGCGGGUUCGAGUCCCCUUCGGAACG	Yes
GUUCCGUUGGCGUACCGGUAACGCGUCUCCCUCCUUAGGAGAAGACUGCGGGUUCGAGUCCCGUCCGGAACG	No
GUUCCGUUGGCGUAAUGGUAACGCGUCUCCAUCCUAAGGAGACGCCUGCGGGUUCGAGUCCCGUACGGAACG	No
GUUCCGUUGGCGUAAUGGUAACGCGUCUCCCUCCUAAGGAGAAGACUGCGGGUUCGAGUCCCCCACGGAACG	Yes
GUUCCGUUGGCGUAACGGUAACGCCUCUCCCUCUUAAGGAGAAGACUGCGGGUUCGAGUCCCGUACGGAACG	No
GUUCCGUUGGCGUAAUGGUAACGCGGCUCCCUCCUAAGGAGAAGACUGCGGGUUGGAGACCCGGACGGAACG	No
GUUCCAUUGGCGUAUUGGUAACACGUCUCCCUCCUAAGGAGAAGACUGCGGGUUCGAGUCCCGUACGGAACG	No
GUUCCGUUGGCGUAAUGGUAUCGCGUCUCCCUCCUAAGGAGAAGACUGCGGGUGCGAGUCCCGUACGGAACG	No
GUUCCGUUGGCGUAAUGGUAACGGGUCUCCCUUCUAAGGAGAAGACUGCGGGUUCGAGUCACGUACGGUACG	No
GUACCGUAGGCGUAAUGGUAACGCGUCUCCCUCCUAAGGAGAUGACUGCGGGUUUGAGUCCCGUACGGAACG	No
GUUCCGUUGGCGUAAUGGUACCGGGUCUCCCUCCUAUGGAGAAGACUGCGGGUUUGAGUCCCGUACGGAACG	No
GUUCCGUUGGCGUAAUGGUAACGCGUCUCCCUCCUAAGGAGAAGACUACGGGUUCCAGUCCCGUACGGAACG	Yes
GUCCCGUUGGCGUAAUGGUAACGCGUAUCCCUCCUAAGGAGAAGACUGCGGGUUCGAGUCCUGUACGGAACG	No
GUUCCGUUGGCGUAAUGGUAACGCGUCUCCCUCGUAAGGUGACGAAUGCGGGUUCGAGUCCCCUACGGAACG	No
GUUCCGUUGGCGAAAUGGUAACGCGUCUCCCACCUAUGGAGAAGACUGCGGGUUCGAGUCCCGUACGGAACG	No
GUUCCCUCGGCGUAAUGGUAACGCGUCUCCCUCCUAAGGAGAAGACUGCGGGUUCGACUCCCGUACGGUACG	No
GUUCCGUCGGCGUUAUGGUAAGGCGUCUCUCUCCUAAGGAGAAGACUGCGGGUUCGCGUCACGUACAGAACG	No
GUUGCGUUGGCGUAUUGGUAACGCGUCUCCCUCCUAAGGAGAAGACUGCGGGUUCGAGUCCCGUACGGAACG	Yes
GUUCCGUUGGCGUAGUGGUAGCGCGUCUCCCUCCUAAGGAGCAGAAUGCGGGUUCGAGUCCCGUACGGAACG	No
GUUCCGUUGGCGUAAUGGUAACGCGUCUCCGUCCUAAGGAGAAGACUGCGGGUUCGAGUCCCGUCCGGAACG	Yes
GUUCCGUUGGCGUAACGGUAACGCGUCUCCCUCCCAAGGAGAAGACUGCGGGUUCGCGUCCCGUACGGAACG	No
GUUACGUUGGCGUAAUGGUAACGCGUCUCCCCCCUAAGGUGAAGACUGGGGGUUCGAGUCCCGUACGCAACG	No
GUUCCGGUAGCGUAAUGGUAACGCGUCUCCGUUCUGAGGAGAAGACUGCGGGUUCGAGUCCCGUACGGAACG	No
GUUCCGUUGGAGUGAUGGUAACGCGUCUCCCUCCUAAGGAGACGACUGCGGGUUCGGGCCCCGUACGGAGCG	No
GUUCCGUUGAGGUAAUGGUAACGCGUCUCCCUCCUAAGGAGAAGACUGCGGGUUCGAGUACCGUACUGAACG	No
GUUCCAUUGGCGUAAUGGUAACGUGUCUCCCUCCUAAGGAGAAGACUGCGGGUUCGAGUCCCGUCCGGAACG	No
GAUCCGUUGGCGUAAUGGUAACGCGUCUCCCUCCUAAGGAGAAGACUCCAGGUUCGAGUCCCGUACGGAACG	Yes
GUUCCGUUGGCGUAAUGGUAACGCGUCUCCCUCCUAAGGAGAAGACUGCGGGAUCGAGUCCUGUACGGUACG	No
GUUCCGUUGGAGUAAUGGUAACGUGUCUCCCUCCUAAGGAGAAGACUACGGGUUCGAGUCCCGUACGGAACG	No
